Sourced from patent US20080090805A1

# Assay text: in vitro
# Condition info: mouse, microsomes, pH 7.4
Recorded metric: microsomal CLint at 1 μM (µL/min/mg)
Output spec: scalar in µL/min/mg, unitless text.

get_value(item= C[C@@H]1CCC[C@H](C)N1NC(=O)c1ccc2c(c1)N=C(c1cccc(Cl)c1)c1ccccc1S2 [drawing 1720] , readout=microsomal CLint at 1 μM) returns 684

get_value(item= CCCCNC(=O)c1ccc2c(c1)N=C(c1ccc(Cl)cc1)c1ccc(Cl)cc1S2 [drawing 1732] , readout=microsomal CLint at 1 μM) returns 29

get_value(item= CC(C)CCNC(=O)c1ccc2c(c1)N=C(c1cccc(F)c1)c1ccccc1S2 [drawing 1713] , readout=microsomal CLint at 1 μM) returns 202

get_value(item= O=C(NN1CCCCCC1)c1ccc2c(c1)N=C(c1cccc(F)c1)c1ccccc1S2 [drawing 1693] , readout=microsomal CLint at 1 μM) returns 160

get_value(item= CC(C)CNC(=O)c1ccc2c(c1)N=C(c1ccc(Cl)cc1)c1ccccc1S2 [drawing 1759] , readout=microsomal CLint at 1 μM) returns 83

get_value(item= O=C(NCc1ccco1)c1ccc2c(c1)N=C(c1cccc(F)c1)c1ccccc1S2 [drawing 1754] , readout=microsomal CLint at 1 μM) returns 197

get_value(item= O=C(NN1CCCCC1)c1ccc2c(c1)N=C(c1ccc(Cl)s1)c1ccccc1S2 [drawing 1660] , readout=microsomal CLint at 1 μM) returns 227
